Source: patent US20240294661A1

tgt: membrane-bound tissue factor (TF) on cells (human, UniProt P13726 33-295)
experimental.protocol: cell-based or functional assay
quantity: IC50 of cell killing, NCI-H441 cells, ADC killing assay (ng/mL)

binder	value
HuMab-TF-111-vcMMAE (antibody, IgG1, V domains shown, vcMMAE drug-linker alkylated to cysteines of the reduced antibody (positions not given), DAR 4.3 by RP-HPLC, 4.1 by HIC) VH: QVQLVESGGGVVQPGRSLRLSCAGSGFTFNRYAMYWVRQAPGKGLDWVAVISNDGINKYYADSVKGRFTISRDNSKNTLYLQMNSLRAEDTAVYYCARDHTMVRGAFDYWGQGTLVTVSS VL: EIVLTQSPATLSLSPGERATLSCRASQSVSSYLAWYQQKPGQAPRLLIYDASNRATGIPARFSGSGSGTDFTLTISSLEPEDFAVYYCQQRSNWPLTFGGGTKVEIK	416
HuMab-TF-098-vcMMAE (antibody, IgG1, V domains shown, vcMMAE drug-linker alkylated to cysteines of the reduced antibody (positions not given), DAR 3.9 by RP-HPLC, 3.7 by HIC) VH: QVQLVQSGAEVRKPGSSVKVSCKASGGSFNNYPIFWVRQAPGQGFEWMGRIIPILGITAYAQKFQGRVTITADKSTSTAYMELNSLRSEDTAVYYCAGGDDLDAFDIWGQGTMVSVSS VL: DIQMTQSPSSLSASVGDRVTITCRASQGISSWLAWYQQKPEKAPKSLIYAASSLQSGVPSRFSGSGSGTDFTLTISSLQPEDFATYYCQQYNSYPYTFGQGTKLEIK	10
HuMab-TF-011-vcMMAE (antibody, IgG1, V domains shown, vcMMAE drug-linker alkylated to cysteines of the reduced antibody (positions not given), DAR 3.9 by RP-HPLC, 3.9 by HIC) VH: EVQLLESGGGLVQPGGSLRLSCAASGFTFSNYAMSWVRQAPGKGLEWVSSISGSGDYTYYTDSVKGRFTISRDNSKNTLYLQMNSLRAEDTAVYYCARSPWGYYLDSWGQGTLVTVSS VL: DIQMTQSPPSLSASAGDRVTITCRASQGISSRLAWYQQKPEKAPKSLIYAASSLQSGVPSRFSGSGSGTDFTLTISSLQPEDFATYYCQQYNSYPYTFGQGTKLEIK	10
